target: Transient receptor potential cation channel subfamily A member 1 (Homo sapiens); assay: Activation of human TRPA1 expressed in TREx-HEK cells by Fluo-4 AM dye-based Ca2+ imaging assay relative to 100 uM ITC; type: cell-based
# max activation >= 90% gives criterion met, anything below gives criterion not met

C=CCCN=C=S; criterion met
S=C=NCc1ccccc1 [BENZYL ISOTHIOCYANATE]; criterion met
CC(C)N=C=S [ISOPROPYL ISOTHIOCYANATE]; criterion not met
CSCCCN=C=S; criterion met

----------
target: Transient receptor potential cation channel subfamily A member 1 (Homo sapiens, UniProt O75762); test: Activation of human TRPA1 expressed in TREx-HEK cells at 1 uM in presence of TRPA1 antagonist HC030031 by Fluo-4 AM dye-based Ca2+ imaging assay; assay type: cell-based
Sequence (O75762 whole entry): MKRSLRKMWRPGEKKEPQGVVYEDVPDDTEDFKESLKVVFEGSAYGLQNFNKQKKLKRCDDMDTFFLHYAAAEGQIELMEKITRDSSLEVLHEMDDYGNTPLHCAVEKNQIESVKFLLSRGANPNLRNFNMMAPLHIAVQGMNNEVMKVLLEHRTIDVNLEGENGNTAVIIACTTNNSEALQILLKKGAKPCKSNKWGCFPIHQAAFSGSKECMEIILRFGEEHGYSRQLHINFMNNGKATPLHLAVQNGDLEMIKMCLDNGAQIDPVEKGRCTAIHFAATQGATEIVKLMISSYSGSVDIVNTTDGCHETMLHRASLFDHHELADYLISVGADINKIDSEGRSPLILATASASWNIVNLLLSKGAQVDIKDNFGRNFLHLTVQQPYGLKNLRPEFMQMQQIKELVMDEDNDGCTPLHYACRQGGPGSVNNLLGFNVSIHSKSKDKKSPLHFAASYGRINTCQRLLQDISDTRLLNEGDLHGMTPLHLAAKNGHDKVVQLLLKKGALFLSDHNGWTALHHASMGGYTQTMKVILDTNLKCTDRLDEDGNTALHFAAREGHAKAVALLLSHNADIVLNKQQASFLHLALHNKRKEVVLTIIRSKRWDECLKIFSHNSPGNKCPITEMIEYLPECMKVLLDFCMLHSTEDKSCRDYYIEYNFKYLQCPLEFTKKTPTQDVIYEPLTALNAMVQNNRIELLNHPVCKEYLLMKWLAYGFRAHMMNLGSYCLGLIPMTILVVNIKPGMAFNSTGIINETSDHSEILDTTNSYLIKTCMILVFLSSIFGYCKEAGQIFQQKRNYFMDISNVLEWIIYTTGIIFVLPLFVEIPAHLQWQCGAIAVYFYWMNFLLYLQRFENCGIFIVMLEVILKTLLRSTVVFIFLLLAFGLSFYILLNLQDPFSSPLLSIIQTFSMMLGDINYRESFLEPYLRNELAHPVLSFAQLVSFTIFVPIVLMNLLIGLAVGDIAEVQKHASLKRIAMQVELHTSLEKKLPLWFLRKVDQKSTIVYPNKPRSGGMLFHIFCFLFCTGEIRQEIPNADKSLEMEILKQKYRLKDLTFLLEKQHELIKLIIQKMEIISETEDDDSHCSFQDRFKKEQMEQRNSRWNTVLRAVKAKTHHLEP
Activity calls are given as the source filed them. No cut-off for these calls is given here.
Recorded endpoint: Activity

CC(C)N=C=S [ISOPROPYL ISOTHIOCYANATE]; inactive
CSCCCN=C=S; inactive
CC(C)CN=C=S; inactive
CCC(C)N=C=S (centres undefined); inactive
C=CCCN=C=S; inactive
CSCCCCCCCN=C=S; inactive
S=C=NCCc1ccccc1 [PHENETHYLISOTHIOCYANATE]; inactive
CSCCCCCCN=C=S; inactive
C=CCCCN=C=S; inactive
C=CCCCCN=C=S; inactive
S=C=NCc1ccccc1 [BENZYL ISOTHIOCYANATE]; inactive
C=CCN=C=S [ALLYL ISOTHIOCYANATE]; inactive
CSCCCCCN=C=S; inactive
C=CCCCCCN=C=S; inactive
